test system: HepG2; assay: cytotoxicity call (relative viability < 0.9); conditions: 10 µM
Hit rate of the full screen: of about 39,000 compounds, about 3,300 (8.5%) were called active. The list comes from a sample in which actives are over-represented; it also holds close analogues and randomly drawn compounds.
Hi there, use one of these labels in your reply, thanks! true (1) for active, false (0) for inactive

>>> answerlabel("COc1ccc(CN(C)C[C@H]2Oc3ccc(NC(=O)Nc4ccc(C(F)(F)F)cc4)cc3C(=O)N([C@H](C)CO)C[C@H]2C)cc1")
"true (1)"
>>> answerlabel("C[C@H]1CN([C@@H](C)CO)C(=O)c2cc(C#Cc3cccc(F)c3)cnc2O[C@@H]1CN(C)CC1CCOCC1")
"false (0)"
>>> answerlabel("C[C@@H]1CN([C@@H](C)CO)S(=O)(=O)c2ccc(C#CC3CC3)cc2O[C@H]1CN(C)C(=O)c1cccc(F)c1")
"false (0)"
>>> answerlabel("C[C@@H]1CN([C@H](C)CO)C(=O)c2cccc(NS(=O)(=O)c3cn(C)cn3)c2O[C@@H]1CN(C)Cc1ccncc1")
"false (0)"
>>> answerlabel("Cc1noc(C)c1NC(=O)Nc1cccc2c1O[C@@H](CN(C)S(C)(=O)=O)[C@H](C)CN([C@H](C)CO)C2=O")
"false (0)"
>>> answerlabel("C[C@H]1CN([C@@H](C)CO)C(=O)c2cccc(NC(=O)c3ccc(-c4nccs4)cc3)c2O[C@H]1CN(C)S(C)(=O)=O")
"false (0)"

Entry C[C@@H]1CCCCO[C@H](CN(C)CC2CCCCC2)[C@H](C)CN([C@@H](C)CO)C(=O)c2cc(NC(=O)c3ccncc3)ccc2O1 : call = ? false (0)

Entry COc1ccc(CN(C)C[C@@H]2Oc3ccc(NC(=O)Nc4ccc(C(F)(F)F)cc4)cc3C(=O)N([C@H](C)CO)C[C@@H]2C)cc1 : call = ? true (1)

Entry COc1ccc(NC(=O)Nc2ccc3c(c2)C(=O)N([C@H](C)CO)C[C@H](C)[C@@H](CN(C)Cc2ccc(C(F)(F)F)cc2)O3)cc1 : call = ? false (0)

Entry O=C(NN1CCCCC1)c1nn(-c2ccc(Cl)cc2Cl)c(-c2ccc(C#Cc3ccc(C(F)(F)F)cc3)s2)c1CNS(=O)(=O)N1CCCC1 : call = ? false (0)

Entry C[C@H]1CN([C@@H](C)CO)C(=O)c2cc(NC(=O)Cn3cnnn3)ccc2O[C@@H]1CN(C)S(=O)(=O)c1ccccc1 : call = ? false (0)
